Tested on: H1 or H9 human embryonic stem cells
Experiment: Activin A bioassay: differentiation of human embryonic stem cells to definitive endoderm, cell number and SOX17 intensity by high content analysis (96-well, four days);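 further: Raw total cell count per well from high content imaging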
Format: cell-based
Settings: supernatant concentration 50x, assay dilution 1:20; assay plates #008, #009
Protocol: Activin A is an important mediator of differentiation in a broad range of cell types. […] A bioassay that measures this differentiation in human embryonic stem cells was adapted in miniaturized format to 96-well plates for screening purposes. […] Imaging was performed using an IN Cell Analyzer 1000 (GE Healthcare) utilizing the 51008bs dichroic for cells stained with Hoechst 33342 and Alexa Fluor 488. […] Averages and standard deviations were calculated for each replicate data set. […]

Molecule | Cell Number average
ACTN30: activin A variant peptide, SEQ ID 31 (protein) GLECDGKVNYCCKKQNFVSFKDIGWNDWIIAPSGYHANKCSGLCPSHIAGTSGSSLSFHSTVINHYRMRGHSPFSKMGACCVPTKLRPMSMLYYDDGQNIIKKDIQNMIVEECGCS | 5013
ACTN57: activin A variant peptide, SEQ ID 58 (protein) GLECDGKVNICCKKQSFGQAKDIGWNDWIIAPSGYHGGGCSGECPSHIAGTSGSSLSFHSTVINHYRMRGHSPWANLKSCCSPTKLRPMSMLYYDDGQNIIKKDIQNMKVEECGCT | 12697
